The measurements presented in this section are drawn from the supplement of paper PMC11246515.

We begin with a simple list: items and their reported total protein half-life in vivo.
- run.description: total protein half-life in vivo (active degradation + dilution); higher = more stable protein
- particulars: wild type E. coli NCM3722; growth: N-lim chemostat; doubling time 6 h
Reply numerically in h, unit not repeated.

Example cases with answers are listed next.
MRYIVALTGGIGSGKSTVANAFADLGINVIDADIIARQVVEPGAPALHAIADHFGANMIAADGTLQRRALRERIFANPEEKNWLNALLHPLIQQETQHQIQQATSPYVLWVVPLLVENSLYKKANRVLVVDVSPETQLKRTMQRDDVTREHVEQILAAQATREARLAVADDVIDNNGAPDAIASDVARLHAHYLQLASQFVSQEKP [P0A6I9]
4.18
MTTKRKPYVRPMTSTWWKKLPFYRFYMLREGTAVPAVWFSIELIFGLFALKNGPEAWAGFVDFLQNPVIVIINLITLAAALLHTKTWFELAPKAANIIVKDEKMGPEPIIKSLWAVTVVATIVILFVALYW [P0A8Q0]
5.63

// next entry
Given MTTQTVSGRRYFTKAWLMEQKSLIALLVLIAIVSTLSPNFFTINNLFNILQQTSVNAIMAVGMTLVILTSGIDLSVGSLLALTGAVAASIVGIEVNALVAVAAALALGAAIGAVTGVIVAKGRVQAFIATLVMMLLLRGVTMVYTNGSPVNTGFTENADLFGWFGIGRPLGVPTPVWIMGIVFLAAWYMLHHTRLGRYIYALGGNEAATRLSGINVNKIKIIVYSLCGLLASLAGIIEVARLSSAQPTAGTGYELDAIAAVVLGGTSLAGGKGRIVGTLIGALILGFLNNGLNLLGVSSYYQMIVKAVVILLAVLVDNKKQ [P0AGI1] , state its recorded total protein half-life in vivo.
6.28
